assay: Pharmacokinetic profile after single oral, intranasal and intravenous betahistine in beagle dogs, Example 5; format: in vivo; settings: female, beagle, dog, in vivo, po, 48 mg/kg, Betahistine Plasma Concentration
Observation type: concentration at 24 h (µg/mL)

> print(dat)
                     molecule  measurement.units  recorded.value
1  CNCCc1ccccn1 [betahistine]              µg/mL               0

---

assay: Pharmacokinetic profile after single oral, intranasal and intravenous betahistine in beagle dogs, Example 5; type: in vivo; conditions: female, beagle, dog, in vivo, inhaled or intranasal, 17.7 mg/kg
Observation type: Tmax (min)

> print(dat)
                     molecule  observation.type  measurement.units  recorded.value
1  CNCCc1ccccn1 [betahistine]              Tmax                min             4.8

---

assay: Pharmacokinetic profile after single oral, intranasal and intravenous betahistine in beagle dogs, Example 5; format: in vivo; conditions: female, beagle, dog, in vivo, inhaled or intranasal, 17.7 mg/kg, AUC(0-6)
Observation type: AUC(0-t) (ng·h/mL)

> print(dat)
                     compound  measurement.units  recorded.value
1  CNCCc1ccccn1 [betahistine]            ng·h/mL             277

---

Assay: Pharmacokinetic profile after single oral, intranasal and intravenous betahistine in beagle dogs, Example 5
Format: in vivo
Settings: male, beagle, dog, in vivo, po, 48 mg/kg
Description: In this study, the pharmacokinetic profile of betahistine was evaluated after a single dose administration of betahistine in male and female beagle dogs (age 5-7 months; weight of 5-11 kg, within a range of 3 kg for each sex) for three routes of administration: oral, intranasal, and intravenous. On Day 1 of the study, betahistine (BH) was delivered orally at a dose of 12 mg/kg, 24 mg/kg, or 48 mg/kg. Each treatment group comprised 8 animals (4 males and 4 females). […]
Observation type: half-life (min)

> print(dat)
    smiles.data  recorded.value
1  CNCCc1ccccn1            31.3

---

assay: Pharmacokinetic profile after single oral, intranasal and intravenous betahistine in beagle dogs, Example 5; type: in vivo; details: male, beagle, dog, in vivo, po, 24 mg/kg, Betahistine Plasma Concentration
Observation type: concentration at 24 h (ng/mL)

> print(dat)
    smiles.data  recorded.value
1  CNCCc1ccccn1               0

---

assay: Pharmacokinetic profile after single oral, intranasal and intravenous betahistine in beagle dogs, Example 5; format: in vivo; settings: female, beagle, dog, in vivo, inhaled or intranasal, 17.7 mg/kg
Here, each record is paired with measured Cmax data.
Observation type: Cmax

> print(dat)
                                   molecule  observation.type  recorded.value
1  O=C(O)Cc1ccccn1 [2-PAA, 2-pyridylacetic acid]              Cmax      3810 ng/mL
2                CNCCc1ccccn1 [betahistine]              Cmax      1330 ng/mL

---

assay: Pharmacokinetic profile after single oral, intranasal and intravenous betahistine in beagle dogs, Example 5; assay type: in vivo; details: male, beagle, dog, in vivo, po, 12 mg/kg, Betahistine Plasma Concentration
Observation type: concentration at 2 h (ng/mL)

> print(dat)
    smiles.data      observation.type  measurement.units  recorded.value
1  CNCCc1ccccn1  concentration at 2 h              ng/mL           0.457
